Recorded values, source patent US6479493B1.

biological target: cGMP binding sites of the GST-cGB-PDE5 fusion protein (Homo sapiens, UniProt O76074); assay: cGMP binding assay with GST-cGB-PDE5 fusion protein; conditions: read-out: Kd of cGMP binding to GST-cGB-PDE5 fusion protein; two cGMP binding sites
measurementKind: Kd (nM)
One number for each entry, in nM.

# get_value(readout= Kd, system= cGMP binding sites of the GST-cGB-PDE5 fusion protein (Homo sapiens, UniProt O76074)) for Nc1nc2c(ncn2[C@@H]2O[C@@H]3COP(=O)(O)O[C@H]3[C@H]2O)c(=O)[nH]1 [cGMP, cyclic 3′,5′-guanosine monophosphate]
1600
